# System: 786-0 complex spheroids with HUVEC/MSC, growth % test/control
# procedure_summary: Anticancer human tumor 786-0 cell line growth inhibition [AhR]; active = viability on the fitted dose curve at most 10% of control; inactive = the rest;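 note: compound exposure lasted seven days before the read-out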
# experimental_setup: second compound 3.16 µM; first compound 0.0949 µM
Outcome codes: active, inactive

compound	label_value
CCN(c1cc(-c2ccc(CN3CCOCC3)cc2)cc(C(=O)NCc2c(C)cc(C)[nH]c2=O)c1C)C1CCOCC1 + Cc1ccccc1N=Nc1ccc(NC(=O)c2ccnn2C)c(C)c1	inactive
CC(C)CC(NC(=O)C(Cc1ccccc1)NC(=O)c1cnccn1)B(O)O (stereo not drawn) + CC(CO)NC(=O)c1cc(-c2ccc(Cl)cc2)nn(-c2cnn(C)c2)c1=O	active
Nc1ncn(C2CC(O)C(CO)S2)c(=O)n1 (stereo not drawn) + Cc1ccccc1N=Nc1ccc(NC(=O)c2ccnn2C)c(C)c1	inactive
